test.target: UniProtKB P20309
Sequence (P20309 whole entry, looked up): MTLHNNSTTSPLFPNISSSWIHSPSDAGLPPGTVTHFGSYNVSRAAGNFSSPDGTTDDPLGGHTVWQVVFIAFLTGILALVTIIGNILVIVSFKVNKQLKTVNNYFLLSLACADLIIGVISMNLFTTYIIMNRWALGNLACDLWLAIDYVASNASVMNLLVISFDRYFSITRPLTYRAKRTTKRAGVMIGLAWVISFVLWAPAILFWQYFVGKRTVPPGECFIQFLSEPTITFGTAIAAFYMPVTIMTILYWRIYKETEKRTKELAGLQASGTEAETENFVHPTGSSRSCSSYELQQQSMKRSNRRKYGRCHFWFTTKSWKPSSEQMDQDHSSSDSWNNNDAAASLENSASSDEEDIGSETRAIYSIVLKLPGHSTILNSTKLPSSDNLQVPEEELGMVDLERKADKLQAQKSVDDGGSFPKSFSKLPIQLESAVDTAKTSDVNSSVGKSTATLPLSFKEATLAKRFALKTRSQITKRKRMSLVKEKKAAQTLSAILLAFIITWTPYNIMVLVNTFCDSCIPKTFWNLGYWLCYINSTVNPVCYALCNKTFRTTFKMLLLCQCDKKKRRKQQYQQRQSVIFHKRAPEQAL
test: Ability to displace [3H]N-methylscopolamine binding to M3 human recombinant muscarinic receptor in CHO cells at concentration 1 uM
Format: cell-based
// reported inhibition for each item listed
parameter.measured: inhibition (%)

> print(dat)
                                    compound       test.target  value.measured
 1  COc1ccc(-c2cc(/C=C3/CN4CCC3C4)on2)cc1 (configuration not stated)  UniProtKB P20309               0
 2    Oc1ccc(-c2cc(/C=C3/CN4CCC3CC4)on2)cc1O  UniProtKB P20309               5
 3     Oc1ccc(-c2cc(/C=C3\CN4CCC3CC4)on2)cc1  UniProtKB P20309               0
 4  COc1ccc(-c2cc(/C=C3/CN4CCC3CC4)on2)cc1OC  UniProtKB P20309               6
 5  COc1ccc(COc2ccc(-c3cc(/C=C4\CN5CCC4CC5)on3)cc2)cc1  UniProtKB P20309              31
 6  Nc1ccc(-c2cc(/C=C3/CN4CCC3C4)on2)cc1 (configuration not stated)  UniProtKB P20309               0
 7      C(=C1/CN2CCC1CC2)/c1cc(-c2ccccc2)no1  UniProtKB P20309               5
 8  CC(C)(C)OC(=O)Nc1ccc(-c2cc(/C=C3\CN4CCC3C4)on2)cc1 (configuration not stated)  UniProtKB P20309               0
 9  Oc1ccc(-c2cc(/C=C3\CN4CCC3C4)on2)cc1 (configuration not stated)  UniProtKB P20309              10
10     Nc1ccc(-c2cc(/C=C3\CN4CCC3CC4)on2)cc1  UniProtKB P20309               0
11  Oc1ccc(-c2cc(/C=C3/CN4CCC3C4)on2)cc1O (configuration not stated)  UniProtKB P20309               0
12  COc1ccc(-c2cc(/C=C3\CN4CCC3C4)on2)cc1 (configuration not stated)  UniProtKB P20309               0
